Test system: P. falciparum TM4/8.2 (wild type)
procedure details: microbe, parasite or virus in culture
Assay type: cell-based, Plasmodium falciparum
settings: Plasmodium falciparum; in vitro, wild-type strain TM4/8.2; read-out: IC50 P. falciparum TM4/8.2 (WT)
pIC50: −log10 of the molar value.
Would you mind labelling by pIC50? At or over 6 is met, under is not met.

structure smiles string	tested on	category
CCc1nc(N)nc(N)c1OCc1csc(-c2ccc(OCC(=O)O)cc2)n1	P. falciparum TM4/8.2 (wild type)	met
CCc1nc(N)nc(N)c1OCc1cc(-c2ccc([N+](=O)[O-])cc2)no1	P. falciparum TM4/8.2 (wild type)	not met
CCc1nc(N)nc(N)c1OCc1cn(-c2ccc(C(=O)OC)cc2)nn1	P. falciparum TM4/8.2 (wild type)	not met
CCc1nc(N)nc(N)c1-c1cn(-c2ccccc2)nn1	P. falciparum TM4/8.2 (wild type)	not met
CCc1nc(N)nc(N)c1OCc1cc(-c2cccc(OC)c2)no1	P. falciparum TM4/8.2 (wild type)	met

As a next step, examine the molecule that follows.
Prompt: Is the recorded value of pIC50 equal to or greater than 6 for this molecule? CCc1nc(N)nc(N)c1-c1cn(Cc2ccc(OC(=O)N(c3ccccc3)c3ccccc3)cc2)nn1
Response: not met
